Data credit: DBAASP

- Tested on: Klebsiella pneumoniae ATCC 700603
- ASSAY_PROCEDURE: ≥ marks a high value that may be exact or a test limit, other limits are often not marked, values filed in µg/mL are converted to µM
Form field: MIC (one value per entry).

Check out these entries, answers already filled in.
INSERT INTO assay_data (test_smiles, property_label, measured) VALUES
  ('CC[C@H](C)[C@H](N)C(=O)N1CCC[C@H]1C(=O)N[C@@H](CC(C)C)C(=O)N[C@@H](CC(C)C)C(=O)N[C@@H](CCCN=C(N)N)C(=O)N[C@@H](CCCCN)C(=O)NCC(=O)N[C@@H](CCCCN)C(=O)N[C@@H](CCCCN)C(=O)N[C@H](C(=O)N[C@H](C(=O)N[C@@H](Cc1c[nH]c2ccccc12)C(=O)N[C@@H](Cc1c[nH]c2ccccc12)C(=O)O)[C@@H](C)CC)[C@@H](C)CC', 'MIC', '> 64 µM'),
  ('C[C@H](N)C(=O)N[C@@H](CCCN=C(N)N)C(=O)N[C@@H](Cc1c[nH]c2ccccc12)C(=O)N[C@@H](Cc1c[nH]c2ccccc12)C(=O)N[C@@H](Cc1c[nH]c2ccccc12)C(=O)N[C@@H](CCCN=C(N)N)C(=O)N[C@@H](C)C(N)=O', 'MIC', '> 128 µM');

Task: Test system Klebsiella pneumoniae ATCC 700603; read-out MIC; what value for CC(C)C[C@H](NC(=O)CNC(=O)[C@H](CO)NC(=O)CNC(=O)[C@H](CCCN=C(N)N)NC(=O)[C@H](CCCN=C(N)N)NC(=O)CN)C(=O)NCC(=O)N[C@@H](CCCN=C(N)N)C(=O)N[C@@H](CO)C(=O)N[C@@H](CO)C(=O)N[C@@H](CO)C(=O)N[C@@H](CCCN=C(N)N)C(=O)NCC(=O)N[C@@H](CCC(N)=O)C(=O)N[C@@H](CCCN=C(N)N)C(=O)NCC(=O)N[C@@H](CO)C(=O)NCC(=O)N[C@@H](CO)C(=O)NCC(=O)N[C@@H](CCCN=C(N)N)C(=O)O ?
Output: > 14.7 µM

###

- Test system: Escherichia coli ATCC 25922
- ASSAY_PROCEDURE: ≥ marks a high value that may be exact or a test limit, other limits are often not marked, values filed in µg/mL are converted to µM
PROPERTY_LABEL: MIC (µM)
Response body: numeric value in µM, unit text excluded.

Task: Requested field: MIC. Item: CC(C)C[C@H](NC(=O)CNC(=O)[C@H](C)NC(=O)[C@H](CC(C)C)NC(=O)[C@H](CC(C)C)NC(=O)[C@@H](NC(=O)[C@H](CCCCN)NC(=O)[C@H](CC(C)C)NC(=O)[C@H](CC(C)C)NC(=O)[C@H](C)NC(=O)[C@@H]1CCCN1C(=O)[C@H](CC(C)C)NC(=O)[C@H](C)NC(=O)[C@@H](NC(=O)CNC(=O)[C@H](CC(C)C)NC(=O)[C@@H](N)CCCN=C(N)N)[C@@H](C)O)[C@@H](C)O)C(=O)N[C@@H](CC(N)=O)C(=O)NCC(N)=O
Output: 17

###

- Tested on: Bacillus subtilis ATCC 23857
PROPERTY_LABEL: MIC (µM)
Response body: numeric value in µM, unit text excluded.

Task: Requested field: MIC. Item: C[C@H](N)C(=O)N[C@@H](CCCN=C(N)N)C(=O)N[C@@H](Cc1c[nH]c2ccccc12)C(=O)N[C@@H](Cc1c[nH]c2ccccc12)C(=O)N[C@@H](Cc1c[nH]c2ccccc12)C(=O)N[C@@H](CCCN=C(N)N)C(=O)N[C@@H](C)C(N)=O
Output: 16
